Give measured IC50 for each item. Keep answers brief.
molecular target: UCHL1 (Homo sapiens); test: Deubiquitination assay, cleavage of GST-Ubiquitin-HA by UCHL1 (SDS-PAGE band intensity); type: biochemical; conditions: 8 µM UCHL1, 5 µM GST-Ubiquitin-HA, 0–45 µM compound; read-out: IC50 UCHL1 (DUB activity)
Sequence (P09936 whole entry, other chains not shown): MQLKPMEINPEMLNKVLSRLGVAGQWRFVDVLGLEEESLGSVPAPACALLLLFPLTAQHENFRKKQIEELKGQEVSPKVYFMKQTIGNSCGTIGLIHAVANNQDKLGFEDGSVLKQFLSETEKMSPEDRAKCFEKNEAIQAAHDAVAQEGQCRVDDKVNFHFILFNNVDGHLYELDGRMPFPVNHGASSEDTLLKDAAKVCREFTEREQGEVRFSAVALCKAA
Give bare numbers, in µM.

| COMPOUND | IC50, µM |
| --- | --- |
| Nc1ccc2c(O)c(N=Nc3ccc(N=Nc4ccc(N=Nc5cc(S(=O)(=O)O)c6cccc(S(=O)(=O)O)c6c5)c5ccccc45)c4ccc(S(=O)(=O)O)cc34)c(S(=O)(=O)O)cc2c1 [DB71, Direct blue 71] | 33.7 |

# input for lookup
Name the recorded IC50 of the compound listed here: Cc1cc(-c2ccc(/N=N/c3ccc4c(S(=O)(=O)O)cc(S(=O)(=O)O)c(N)c4c3O)c(C)c2)ccc1/N=N/c1ccc2c(S(=O)(=O)O)cc(S(=O)(=O)O)c(N)c2c1O [EB, Evans blue]
18.1
